Kindly supply the reported log10 of Ki values for the records listed here.
Assay: Binding affinity to Burkholderia pseudomallei Mip measured after 1 hr by fluorescence polarization assay
Conditions: read-out: Ki
Log10 applied to Ki; unit prior to transform: nM.

Sample answers from the record:
INSERT INTO results (compound, reported) VALUES
  ('CC(C)C[C@H](NC(=O)[C@@H]1CCCCN1S(=O)(=O)Cc1ccc(F)cc1)C(=O)NCc1cccnc1', 1.66),
  ('CC(C)C[C@H](OC(=O)[C@@H]1CCCCN1S(=O)(=O)Cc1ccccc1)C(=O)NCc1cccnc1', 1.78),
  ('O=C(NCc1cccnc1)[C@@H](CCc1ccccc1)COC(=O)[C@@H]1CCCCN1S(=O)(=O)Cc1ccccc1', 1.18),
  ('O=C(NCc1cccnc1)[C@H](CCc1ccccc1)NC(=O)[C@@H]1CCCCN1S(=O)(=O)Cc1ccccc1', 1.02);

Please give log10 of Ki for each item listed below.
1. O=C(NCCOC(=O)[C@@H]1CCCCN1S(=O)(=O)Cc1ccccc1)c1cccnc1
2. CC[C@H](C)[C@H](OC(=O)C1CCCCN1S(=O)(=O)Cc1ccccc1)C(=O)NCc1cccnc1 (mixture of isomers)
3. O=C(NCc1cccnc1)[C@H](Cc1ccc(F)cc1)NC(=O)[C@@H]1CCCCN1S(=O)(=O)Cc1ccc(F)cc1
4. CC(C)C[C@H](OC(=O)C1CCCCN1S(=O)(=O)Cc1ccccc1)C(=O)NCc1cccnc1 (mixture of isomers)

Return:
1: 3.60; 2: 3.50; 3: 1.27; 4: 1.20

Please state log10 of Ki for every compound in the list that follows.
1. O=C(NCc1cccnc1)[C@@H](CCc1ccccc1)NC(=O)[C@@H]1CCCCN1S(=O)(=O)Cc1ccccc1
2. O=C(NCc1cccnc1)[C@@H](NC(=O)[C@@H]1CCCCN1S(=O)(=O)Cc1ccc(F)cc1)c1ccc(F)cc1
3. O=C(NCc1cccnc1)C(CCc1cccnc1)OC(=O)[C@@H]1CCCCN1S(=O)(=O)c1ccccc1 (mixture of isomers)
4. O=C(NCc1ccc[n+]([O-])c1)[C@H](Cc1ccc(F)cc1)NC(=O)[C@@H]1CCCCN1S(=O)(=O)Cc1ccc(F)cc1
5. CC(C)C[C@H](NC(=O)[C@@H]1CCCCN1S(=O)(=O)Cc1ccc(F)cc1)C(=O)NCc1ccc[n+]([O-])c1

Return:
1. 2.51
2. 1.23
3. 3.62
4. 3.12
5. 2.17

For every listed record, write down its log10 of Ki.
1. CC(C)C[C@@H](OC(=O)[C@@H]1CCCCN1S(=O)(=O)Cc1ccccc1)C(=O)NCc1cccnc1
2. O=C(NCc1cccnc1)C(CCc1ccccc1)COC(=O)[C@@H]1CCCCN1S(=O)(=O)Cc1ccccc1 (mixture of isomers)
3. O=C(NCc1cccnc1)[C@@H](Cc1ccccc1)NC(=O)[C@@H]1CCCCN1S(=O)(=O)Cc1ccccc1
4. O=C(NCc1cccnc1)[C@H](Cc1ccccc1)NC(=O)[C@@H]1CCCCN1S(=O)(=O)Cc1ccccc1

Return:
3.40
2.32
2.80
1.54

Consider the following items and state reported log10 of Ki for each.
1. O=C(NCc1cccnc1)[C@H](Cc1ccccc1)OC(=O)[C@H]1CCCCN1S(=O)(=O)c1ccccc1
2. O=C(N[C@@H](Cc1ccccc1)C(=O)NCc1ccc[n+]([O-])c1)C1CCCCN1S(=O)(=O)Cc1ccccc1 (mixture of isomers)

Return:
1: 4.63; 2: 3.65

---

Tested on: Neisseria meningitidis
Experiment: Inhibition of Neisseria meningitidis Mip NEIS0004 assessed as remaining activity using Suc-ALPF-pNA substrate measured at 400 nM by protease coupled assay relative to control
Calls of active or inactive are those of the source. The calls are words filed in the database; no cut-off is given here.
Value type: Activity

// solved cases for Activity follow
INSERT INTO measurements (compound, experimental_system, value_type, reported) VALUES
  ('O=C(NCc1cccnc1)C(CCc1cccnc1)OC(=O)[C@@H]1CCCCN1S(=O)(=O)c1ccccc1 (mixture of isomers)', 'Neisseria meningitidis', 'Activity', '32.8%'),
  ('O=C(O[C@H](Cc1ccccc1)C(=O)NCc1cccnc1)[C@H]1CCCCN1S(=O)(=O)c1ccccc1', 'Neisseria meningitidis', 'Activity', '108%'),
  ('CC[C@H](C)[C@H](OC(=O)C1CCCCN1S(=O)(=O)Cc1ccccc1)C(=O)NCc1cccnc1 (mixture of isomers)', 'Neisseria meningitidis', 'Activity', '9.4%'),
  ('O=C(NCc1cccnc1)[C@H](CCc1ccccc1)NC(=O)[C@@H]1CCCCN1S(=O)(=O)Cc1ccccc1', 'Neisseria meningitidis', 'Activity', '12.9%'),
  ('C=CCOC(=O)[C@H](Cc1ccc(F)cc1)NC(=O)[C@@H]1CCCCN1S(=O)(=O)Cc1ccc(F)cc1', 'Neisseria meningitidis', 'Activity', 'inactive');

Items follow; give Activity for each.
1. O=C(NCc1cccnc1)[C@H](CCc1ccccc1)COC(=O)[C@@H]1CCCCN1S(=O)(=O)Cc1ccccc1
2. O=C(NCc1cccnc1)[C@H](Cc1ccccc1)NC(=O)[C@@H]1CCCCN1S(=O)(=O)Cc1ccccc1
3. O=C(NCc1cccnc1)[C@@H](CCc1ccccc1)COC(=O)[C@@H]1CCCCN1S(=O)(=O)Cc1ccccc1
4. O=C(NCCOC(=O)[C@@H]1CCCCN1S(=O)(=O)Cc1ccccc1)c1cccnc1
5. O=C(N[C@@H](Cc1ccccc1)C(=O)NCc1ccc[n+]([O-])c1)C1CCCCN1S(=O)(=O)Cc1ccccc1 (mixture of isomers)
6. CC(C)C[C@H](NC(=O)[C@@H]1CCCCN1S(=O)(=O)Cc1ccc(F)cc1)C(=O)NCc1ccc[n+]([O-])c1
7. CC(C)C[C@@H](OC(=O)[C@@H]1CCCCN1S(=O)(=O)Cc1ccccc1)C(=O)NCc1cccnc1

Return:
70%
8.5%
11.1%
61.9%
45.5%
23.8%
inactive

---

Tested on: Neisseria meningitidis
Assay: Inhibition of Neisseria meningitidis Mip NEIS0004 assessed as remaining activity using Suc-ALPF-pNA substrate measured at 400 nM by protease coupled assay relative to control
I would appreciate it if you labelled entries rule met when Activity is 40% or higher, otherwise rule not met.

Here are 3 compounds together with their reported answers.
INSERT INTO results (compound, group_label) VALUES
  ('O=C(NCc1cccnc1)[C@@H](NC(=O)[C@@H]1CCCCN1S(=O)(=O)Cc1ccc(F)cc1)c1ccc(F)cc1', 'rule not met'),
  ('C#CCOc1ccc(C[C@H](NC(=O)[C@@H]2CCCCN2S(=O)(=O)Cc2ccc(F)cc2)C(=O)NCc2cccnc2)cc1', 'rule not met'),
  ('O=C(NCc1cccnc1)C(CCc1ccccc1)COC(=O)[C@@H]1CCCCN1S(=O)(=O)Cc1ccccc1 (mixture of isomers)', 'rule not met');

Enquiry: Textbook exercise: given the entry CC(C)C[C@H](OC(=O)C1CCCCN1S(=O)(=O)Cc1ccccc1)C(=O)NCc1cccnc1 (mixture of isomers) , state whether its Activity is greater than or equal to 40%.
Return: rule not met

Enquiry: Check if Activity >= 40% (inclusive). Item: O=C(NCc1cccnc1)C(CCc1ccccc1)COC(=O)[C@H]1CCCCN1S(=O)(=O)Cc1ccccc1 (mixture of isomers)
Return: rule met

Enquiry: Entry CC(C)[C@H](OC(=O)C1CCCCN1S(=O)(=O)Cc1ccccc1)C(=O)NCc1cccnc1 (mixture of isomers) : is its Activity no less than 40%?
Return: rule not met

Enquiry: Threshold query (Activity >= 40%) on `O=C(NCc1cccnc1)[C@@H](Cc1ccccc1)OC(=O)[C@@H]1CCCCN1S(=O)(=O)c1ccccc1`
Return: rule met

Enquiry: # bool: Activity of `O=C(NCc1cccnc1)[C@H](Cc1ccccc1)OC(=O)[C@H]1CCCCN1S(=O)(=O)c1ccccc1` >= 40%
Return: rule met

Enquiry: Kindly determine if Activity recorded for `CC(C)C[C@H](NC(=O)[C@@H]1CCCCN1S(=O)(=O)Cc1ccc(F)cc1)C(=O)NCc1cccnc1` is above or exactly 40%.
Return: rule not met

Enquiry: Determine whether measured Activity meets or exceeds 40% for O=C(O[C@@H](Cc1ccccc1)C(=O)NCc1cccnc1)C1CCCCN1S(=O)(=O)Cc1ccccc1 (mixture of isomers)
Return: rule not met
